- tested.on: HCV NS3/4A protease complex (BMS strain) (UniProt P27958, C1454S/C1711G, species not given)
- Construct: for H77 and J4L6S; fused on or other part: Three-lysine solubilising tail at the C-terminus of NS4A
- assay.comment: Recombinant HCV NS3/4A protease complex FRET peptide assay
- Type: biochemical, Hepatitis C virus (HCV), genotype 1a
- measurement.context: NS3/4A BMS strain; activity range class; read-out: IC50
pIC50: −log10 of the molar value.
recorded.metric: pIC50

[[record]]
compound = "C=C[C@@H]1C[C@]1(NC(=O)[C@@H]1C[C@@H](Oc2nccc3ccccc23)CN1C(=O)[C@@H](NC(=O)Oc1ccccc1)C(C)(C)C)C(=O)NS(=O)(=O)C1(Cc2ccccc2)CC1 [Cmpd 201]"
observed_value = "5.00 to 6.00"

[[record]]
compound = "C=C[C@@H]1C[C@]1(NC(=O)[C@@H]1C[C@@H](Oc2nccc3ccccc23)CN1C(=O)[C@@H](NC(=O)OCCF)C(C)(C)C)C(=O)NS(=O)(=O)C1(Cc2ccccc2)CC1 [Cmpd 206]"
observed_value = "6.00 to 7.00"

[[record]]
compound = "C=C[C@@H]1C[C@]1(NC(=O)[C@@H]1C[C@@H](Oc2nccc3c(Cl)cccc23)CN1C(=O)[C@@H](NC(=O)OC(C)(C)C)C(C)(C)C)C(=O)NS(=O)(=O)C1(CC)CC1 [Cpd 101]"
observed_value = "> 7.00"

[[record]]
compound = "C=C[C@@H]1C[C@]1(NC(=O)[C@@H]1C[C@@H](Oc2nccc3cc(OC)ccc23)CN1C(=O)[C@@H](NC(=O)OC(C)(C)C)C(C)(C)C)C(=O)NS(=O)(=O)C1(CC)CC1 [Cmpd 300]"
observed_value = "> 7.00"

[[record]]
compound = "C=C[C@@H]1C[C@]1(NC(=O)[C@@H]1C[C@@H](Oc2nccc3cc(OC)c(F)cc23)CN1C(=O)[C@@H](NC(=O)OC(C)(C)C)C(C)(C)C)C(=O)NS(=O)(=O)C1(CC)CC1 [Cpd 109]"
observed_value = "> 7.00"

[[record]]
compound = "C=C[C@@H]1C[C@]1(NC(=O)[C@@H]1C[C@@H](Oc2nccc3ccccc23)CN1C(=O)[C@@H](NC(=O)Oc1ccccc1OC)C(C)(C)C)C(=O)NS(=O)(=O)C1(Cc2ccccc2)CC1 [Cmpd 207]"
observed_value = "5.00 to 6.00"

[[record]]
compound = "C=C[C@@H]1C[C@]1(NC(=O)[C@@H]1C[C@@H](Oc2nccc3c(Cl)c(OC)ccc23)CN1C(=O)[C@@H](NC(=O)OC(C)(C)C)C(C)(C)C)C(=O)NS(=O)(=O)C1(CC)CC1 [Cpd 105]"
observed_value = "> 7.00"

[[record]]
compound = "C=C[C@@H]1C[C@]1(NC(=O)[C@@H]1C[C@@H](Oc2nccc3ccccc23)CN1C(=O)[C@@H](NC(=O)CC(C)(C)C)C(C)(C)C)C(=O)NS(=O)(=O)C1(Cc2ccccc2)CC1 [Cmpd 210]"
observed_value = "5.00 to 6.00"

[[record]]
compound = "C=C[C@@H]1C[C@]1(NC(=O)[C@@H]1C[C@@H](Oc2ncc(Cl)c3ccccc23)CN1C(=O)[C@@H](NC(=O)OC(C)C)C(C)(C)C)C(=O)NS(=O)(=O)C1(CC)CC1 [Cpd 112]"
observed_value = "> 7.00"

[[record]]
compound = "C=C[C@@H]1C[C@]1(NC(=O)[C@@H]1C[C@@H](Oc2nccc3c(C(F)(F)F)cccc23)CN1C(=O)[C@@H](NC(=O)OC(C)(C)C)C(C)(C)C)C(=O)NS(=O)(=O)C1(CC)CC1 [Cpd 104]"
observed_value = "> 7.00"

[[record]]
compound = "C=C[C@@H]1C[C@]1(NC(=O)[C@@H]1C[C@@H](Oc2nccc3ccccc23)CN1C(=O)[C@@H](NC(=O)OCC(C)(C)C)C(C)(C)C)C(=O)NS(=O)(=O)C1(Cc2ccccc2)CC1 [Cmpd 205]"
observed_value = "6.00 to 7.00"

[[record]]
compound = "C=C[C@@H]1C[C@]1(NC(=O)C1C[C@@H](Oc2nc(-c3ccccc3)nc3ccccc23)CN1C(=O)[C@@H](NC(=O)OC(C)(C)C)C(C)(C)C)C(=O)NS(=O)(=O)C1(CC2CC2)CC1 (stereo partly shown) [Cmpd 600]"
observed_value = "> 7.00"

[[record]]
compound = "C=C[C@@H]1C[C@]1(NC(=O)[C@@H]1C[C@@H](Oc2nccc3c(Cl)cccc23)CN1C(=O)[C@@H](NC(=O)OC(C)C)C(C)(C)C)C(=O)NS(=O)(=O)C1(CC)CC1 [Cpd 111]"
observed_value = "> 7.00"

[[record]]
compound = "C=C[C@@H]1C[C@]1(NC(=O)[C@@H]1C[C@@H](Oc2nccc3ccccc23)CN1C(=O)[C@@H](NC(=O)Oc1cccc(C(F)(F)F)c1)C(C)(C)C)C(=O)NS(=O)(=O)C1(Cc2ccccc2)CC1 [Cmpd 208]"
observed_value = "5.00 to 6.00"

[[record]]
compound = "C=C[C@@H]1C[C@]1(NC(=O)[C@@H]1C[C@@H](Oc2nccc3cc(OC)ccc23)CN1C(=O)[C@@H](NC(=O)NC1CCCC1)C(C)(C)C)C(=O)NS(=O)(=O)C1(C)CC1 [Cmpd 218]"
observed_value = "> 7.00"

[[record]]
compound = "C=C[C@@H]1C[C@]1(NC(=O)[C@@H]1C[C@@H](Oc2nccc3ccccc23)CN1C(=O)[C@@H](NC(=O)Oc1ccc(OC)cc1)C(C)(C)C)C(=O)NS(=O)(=O)C1(Cc2ccccc2)CC1 [Cmpd 203]"
observed_value = "5.00 to 6.00"

[[record]]
compound = "C=C[C@@H]1C[C@]1(NC(=O)[C@@H]1C[C@@H](Oc2nccc3cc(OC)ccc23)CN1C(=O)[C@@H](NC(=O)OC(C)(C)C)C(C)(C)C)C(=O)NS(=O)(=O)C1(Cl)CC1 [Cmpd 304]"
observed_value = "> 7.00"

[[record]]
compound = "C=C[C@@H]1C[C@]1(NC(=O)[C@@H]1C[C@@H](Oc2nccc3c4c(ccc23)OCCO4)CN1C(=O)[C@@H](NC(=O)OC(C)(C)C)C(C)(C)C)C(=O)NS(=O)(=O)C1(CC)CC1 [Cpd 108]"
observed_value = "> 7.00"

[[record]]
compound = "C=C[C@@H]1C[C@]1(NC(=O)[C@@H]1C[C@@H](Oc2nccc3ccccc23)CN1C(=O)[C@@H](NC(=O)O[C@@H]1C[C@H](C)CC[C@H]1C(C)C)C(C)(C)C)C(=O)NS(=O)(=O)C1(Cc2ccccc2)CC1 [Cmpd 209]"
observed_value = "4.00 to 5.00"


* * *

- System: HCV replicon in Huh7 cells
- assay.comment: microbe, parasite or virus in culture
- Assay type: cell-based, strain 1b
- measurement.context: Hepatitis C virus, Huh-7, 96 h; Huh7 cells expressing HCV replicon, 4 days; activity range class
recorded.metric: EC50

[[record]]
molecule = "C=C[C@@H]1C[C@]1(NC(=O)[C@@H]1C[C@@H](Oc2ncc(Cl)c3ccccc23)CN1C(=O)[C@@H](NC(=O)OC(C)C)C(C)(C)C)C(=O)NS(=O)(=O)C1(CC)CC1"
tested_on = "HCV replicon in Huh7 cells"
observed_value = "100 to 1000 nM"

[[record]]
molecule = "C=C[C@@H]1C[C@]1(NC(=O)[C@@H]1C[C@@H](Oc2ncc(Cl)c3ccccc23)CN1C(=O)[C@@H](NC(=O)OC(C)(C)C)C(C)(C)C)C(=O)NS(=O)(=O)C1(CC)CC1"
tested_on = "HCV replicon in Huh7 cells"
observed_value = "100 to 1000 nM"

[[record]]
molecule = "C=C[C@@H]1C[C@]1(NC(=O)[C@@H]1C[C@@H](Oc2cc(-c3ccccc3)nc3c(C)noc23)CN1C(=O)[C@@H](NC(=O)OC(C)(C)C)C(C)(C)C)C(=O)NS(=O)(=O)C1(Cc2ccccc2)CC1"
tested_on = "HCV replicon in Huh7 cells"
observed_value = "100 to 1000 nM"

[[record]]
molecule = "C=C[C@@H]1C[C@]1(NC(=O)[C@@H]1C[C@@H](Oc2nccc3ccccc23)CN1C(=O)[C@@H](NC(=O)O[C@@H]1C[C@H](C)CC[C@H]1C(C)C)C(C)(C)C)C(=O)NS(=O)(=O)C1(Cc2ccccc2)CC1"
tested_on = "HCV replicon in Huh7 cells"
observed_value = "1000 to 10000 nM"

[[record]]
molecule = "C=C[C@@H]1C[C@]1(NC(=O)[C@@H]1C[C@@H](Oc2nc(-c3ccccc3)nc3ccccc23)CN1C(=O)[C@@H](NC(C)=O)C(C)(C)C)C(=O)NS(=O)(=O)C1(CC2CC2)CC1"
tested_on = "HCV replicon in Huh7 cells"
observed_value = "100 to 1000 nM"

[[record]]
molecule = "C=C[C@@H]1C[C@]1(NC(=O)[C@@H]1C[C@@H](Oc2nccc3c(Cl)cccc23)CN1C(=O)[C@@H](NC(=O)OC(C)C)C(C)(C)C)C(=O)NS(=O)(=O)C1(CC)CC1"
tested_on = "HCV replicon in Huh7 cells"
observed_value = "< 100 nM"

[[record]]
molecule = "C=C[C@@H]1C[C@]1(NC(=O)[C@@H]1C[C@@H](Oc2nccc3cc(OC)ccc23)CN1C(=O)[C@@H](NC(=O)OC(C)(C)C)C(C)(C)C)C(=O)NS(=O)(=O)C1(Cc2ccccc2)CC1"
tested_on = "HCV replicon in Huh7 cells"
observed_value = "100 to 1000 nM"

[[record]]
molecule = "C=C[C@@H]1C[C@]1(NC(=O)[C@@H]1C[C@@H](Oc2nc(-c3ccccc3)nc3ccccc23)CN1C(=O)[C@@H](NC(=O)OC(C)(C)C)C(C)(C)C)C(=O)NS(=O)(=O)C1(Cc2ccccc2)CC1"
tested_on = "HCV replicon in Huh7 cells"
observed_value = "100 to 1000 nM"

[[record]]
molecule = "C=C[C@@H]1C[C@]1(NC(=O)[C@@H]1C[C@@H](Oc2nc(-c3ccccc3)nc3ccccc23)CN1C(=O)[C@@H](N)C(C)(C)C)C(=O)NS(=O)(=O)C1(CC2CC2)CC1"
tested_on = "HCV replicon in Huh7 cells"
observed_value = "1000 to 10000 nM"

[[record]]
molecule = "C=C[C@@H]1C[C@]1(NC(=O)[C@@H]1CC(Oc2ccnc(-c3cccs3)c2)CN1C(=O)[C@@H](NC(=O)OC1CCCC1)C(C)(C)C)C(=O)NS(=O)(=O)C1(CC2CC2)CC1 (stereo partly shown)"
tested_on = "HCV replicon in Huh7 cells"
observed_value = "< 100 nM"

